// data source = patent EP0430300A2

pIC50: −log10 of the molar value.
UniProt:P25104 measurements of pIC50, listed per entry.
experimentalEndpoint: pIC50

>>> print(df.to_string())
                                   compound  reported
0  CCCCSc1nc2c(c(=O)n(C)c(=O)n2C)n1Cc1ccc(-c2ccccc2C(=O)O)cc1      6.55

I = Cn1c(=O)c2c(nc(Cc3ccccc3)n2Cc2ccc(-c3ccccc3-c3nn[nH]n3)cc2)n(C)c1=O
II = CCCCSc1nc2c(c(=O)n(CCC)c(=O)n2CCC)n1Cc1ccc(-c2ccccc2-c2nnn[nH]2)cc1
III = CCCCc1nc2c(c(=O)n(CCC)c(=O)n2CCCC)n1Cc1ccc(-c2ccccc2-c2nnn[nH]2)cc1
Req: Output the entries ranked by pIC50 from maximum down to minimum. Reply with the labels, ordered as the question asks.
Resp: III, II, I
(III: 6.72, II: 6.25, I: 5.47)

a = CCCSc1nc2c(c(=S)n(C)c(=O)n2C)n1Cc1ccc(-c2ccccc2-c2nn[nH]n2)cc1
b = CC(Cc1nc2c(c(=O)n(C)c(=O)n2C)n1Cc1ccc(-c2ccccc2-c2nn[nH]n2)cc1)c1ccccc1 (stereo not drawn)
c = CCCCSc1nc2c(c(=S)n(C)c(=O)n2C)n1Cc1ccc(-c2ccccc2-c2nn[nH]n2)cc1
d = CC(C)Cc1nc2c(c(=O)n(C)c(=O)n2C)n1Cc1ccc(-c2ccccc2-c2nn[nH]n2)cc1
Req: List from greatest to least pIC50. // ordering of labels required in reply
Resp: d, b, c, a
(d: 6.82, b: 6.48, c: 6.12, a: 5.82)

====

# targetUnderTest: UniProtKB P25104
# Sequence (P25104 1-359): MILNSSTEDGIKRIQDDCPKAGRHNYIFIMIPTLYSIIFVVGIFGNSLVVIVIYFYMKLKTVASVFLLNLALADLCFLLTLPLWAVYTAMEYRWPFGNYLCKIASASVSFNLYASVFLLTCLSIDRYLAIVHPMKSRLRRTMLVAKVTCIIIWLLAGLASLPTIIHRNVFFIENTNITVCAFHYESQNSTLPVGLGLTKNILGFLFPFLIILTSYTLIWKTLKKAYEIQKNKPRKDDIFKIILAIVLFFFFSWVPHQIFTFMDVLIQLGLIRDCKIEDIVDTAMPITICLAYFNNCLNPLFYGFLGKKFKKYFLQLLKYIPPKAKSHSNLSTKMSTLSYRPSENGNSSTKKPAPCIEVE
pIC50: −log10 of the molar value.
experimentalEndpoint: pIC50

Would you please look over these solved cases?
                                   compound  reported
0  CCCCSc1nc2c(c(=O)n(C)c(=O)n2C)n1Cc1ccc(-c2ccccc2-c2nnn[nH]2)cc1 [Compound 34]      6.89
1  CCCc1nc2c(c(=O)n(C)c(=O)n2C)n1Cc1ccc(-c2ccccc2-c2nn[nH]n2)cc1 [Compound 5]      6.77
2  Cn1c(=O)c2c(nc(-c3ccccc3)n2Cc2ccc(-c3ccccc3-c3nn[nH]n3)cc2)n(C)c1=O [Compound 7]      7.19

a = Cn1c(=O)c2c(nc(C3CCCC3)n2Cc2ccc(-c3ccccc3-c3nn[nH]n3)cc2)n(C)c1=O [Compound 9]
b = CCCCc1nc2c(c(=O)n(CC)c(=O)n2CC)n1Cc1ccc(-c2ccccc2-c2nnn[nH]2)cc1 [Compound 31]
c = CCCCc1nc2c(c(=O)n(C)c(=S)n2C)n1Cc1ccc(-c2ccccc2-c2nn[nH]n2)cc1 [Compound 13]
d = CCCSc1nc2c(c(=O)n(C)c(=S)n2C)n1Cc1ccc(-c2ccccc2-c2nn[nH]n2)cc1 [Compound 20]
Req: List from greatest to least pIC50. Please reply with the labels ordered as requested. Many thanks.
Resp: c, b, a, d
